System: ACHN renal
Test: NCI-60 one-dose screen, 48 h (100 = growth as untreated, 0 = no growth, -100 = all killed)
Details: 10 µM
About 83,000 compounds went through this panel and 20% of them were active in at least one assay; those are over-represented in the sample as a whole.
Sorting guide: entries reporting growth beneath 60% go in the true (1) pile, the rest go in the false (0) pile.

1. COc1ccc(-c2cc(C(=O)N=Nc3c(O)[nH]c4ccc(F)cc34)c3ccccc3n2)cc1 : false (0)
2. O=C(NO)c1ccc(-c2nc3ccc4[nH]ncc4c3c3c2CCCC3)cc1 : true (1)
3. O=C(Cn1cc(CSc2nnc3oc4ccccc4n23)nn1)Nc1ccc(Br)cc1 : false (0)
4. O=C(Nc1ccc(OCc2ccccc2)cc1)Nc1ccc(Cl)c(C(F)(F)F)c1 : true (1)
5. O=C(CSc1nnc(-c2c[nH]c3ccccc23)n1-c1ccccc1)Nc1ccc(C(=O)/C=C/c2ccccc2Cl)cc1 : false (0)
6. COc1ccc(C2NC(=S)NC(C)=C2C(=O)OC(C)C)cc1OC (configuration not stated) : false (0)
7. COc1ccc(CN2[C@@H](C(=O)NCc3ccc(C(=O)NO)cc3)Cc3c([nH]c4ccccc34)[C@@H]2C)cc1 : true (1)
8. Cc1cc(=O)oc2cc(OCCCCOc3ccc(/C=C/C(=O)Nc4ccc(F)c(Cl)c4)cc3)ccc12 : false (0)
9. Cc1ccc(-c2cc(-c3cc4ccccc4nc3Cl)[nH]c(=S)n2)cc1 : true (1)
10. CC(C)NC(=O)c1cc(-c2ccc(NC(=O)Nc3ccc(N4CCN(C)CC4)c(C(F)(F)F)c3)cc2)nc2cccnc12 : true (1)
11. CN1CCc2c(sc3ncnc(N/N=C/c4cn(-c5ccccc5)nc4-c4ccc(Br)cc4)c23)C1 : false (0)
12. Nc1nc(Nc2ccc(Cl)cc2)n(Cc2cccc(Br)c2)n1 : true (1)
13. COC(=O)C[C@](O)(CCCC(C)(C)O)C(=O)O[C@H]1C(OC)=C[C@@]23CCC(=O)N2CCc2cc4c(cc2[C@@H]13)OCO4 : false (0)
14. COc1ccc(C(=O)NC(=S)N2CCN(c3ncnc4c3cnn4-c3ccccc3)CC2)cc1 : false (0)
15. O=C(c1ccc(Cl)cc1)C1[C@H](c2ccc(Br)cc2)[C@@H](c2ccccc2)NC12C(=O)Nc1ccccc12 (some centres not stated) : true (1)
16. COc1ccc2ncc(C#Cc3cncc(C(=O)Nc4ccc(CN5CCN(C)CC5)c(C(F)(F)F)c4)c3)n2n1 : true (1)
17. Cc1ccc(-c2cc(C(=O)N=Nc3c(O)[nH]c4ccc(Br)cc34)c3ccccc3n2)cc1 : true (1)
18. CC1=C(c2cc(-c3ccc(Cl)cc3)c(C#N)c(N)n2)C(c2ccccc2)NC(=S)N1 (configuration not stated) : true (1)
19. CC(C)CCSc1nc(NC2CC2)c(C#N)c(-c2ccc(C(C)C)cc2)n1 : false (0)
20. N#Cc1c(-c2ccc(F)cc2)nc(SCc2ccc(F)cc2)nc1N1CCOCC1 : true (1)
21. CCOC(=O)c1sc(N/N=C(\C)c2ccc3c(c2)Nc2ccccc2S3)nc1C : true (1)
22. Brc1ccc(/C=C/c2n(Cc3ccc4ccccc4c3)c3ccccc3[n+]2Cc2ccc3ccccc3c2)cc1 : true (1)
23. CC1(c2ccccc2)NC(=O)N(CC(=O)Nc2ccc(C(=O)/C=C/c3ccc(Cl)cc3)cc2)C1=O (configuration not stated) : true (1)
24. CN(C)c1ccc(/C=C/c2nc3ccccc3c(=O)n2CC(=O)Nc2ccc(Cl)cc2)cc1 : true (1)
25. NC(=Nc1ccc(OCCCCCCCCn2ccnn2)cc1)c1ccccc1 : true (1)
26. COc1csc(/C=N/NC(=O)c2[nH]c3ccc(Br)cc3c2-c2ccccc2)c1 : true (1)
27. Cc1cccc(NC(=O)CSc2nc3ccc(F)cc3c(=O)n2-c2ccc(Cl)cc2)c1C : true (1)
28. O=C1CCC(N2Cc3cc(NC(=O)COc4ccccc4)ccc3C2=O)C(=O)N1 (configuration not stated) : false (0)
29. O=C1CCC(N2Cc3c(NCc4ccc(-c5ccccc5)cc4)cccc3C2=O)C(=O)N1 (configuration not stated) : false (0)
30. Cc1ccc(-c2nc3ccc(C(=O)N=Nc4c(O)[nH]c5ccc([N+](=O)[O-])cc45)cc3[nH]2)cc1 : false (0)
31. CC(=O)c1ccc(Nc2nc(SCCC(C)C)nc(-c3ccc(F)cc3)c2C#N)cc1 : true (1)
32. O=C(Nc1ccc(Cl)c([N+](=O)[O-])c1)Nc1ccc(Cl)c([N+](=O)[O-])c1 : true (1)
